- ASSAY_OVERVIEW: Cytotoxicity against African green monkey Vero cells assessed as cell growth inhibition after 4 days by MTS/PMS method
- Assay type: cell-based
- CONDITION: chlorocebus sabaeus, Vero cells

COMPOUND | UNIT_ABBREV | CENSORING_SIGN | CC50 at 96 h
COc1cccc(NC(C(=O)c2c[nH]c3ccccc23)c2ccccc2)c1OC (stereo unspecified) | µM | > | 129
O=C(c1c[nH]c2ccccc12)C(NC1CCCC1)c1ccccc1 (stereo unspecified) | µM | = | 86
COc1cc(F)cc(NC(C(=O)c2c[nH]c3ccccc23)c2ccccc2)c1 (stereo unspecified) | µM | = | 22
COc1cccc(NC(C(=O)c2c[nH]c3c(C)cccc23)c2ccccc2)c1 (stereo unspecified) | µM | > | 135
COc1cc(NC(C(=O)c2c[nH]c3cccc(CCCO)c23)c2ccccc2)cc(OC)c1 (stereo unspecified) | µM | = | 55
COc1cccc(NC(C(=O)c2c[nH]c3ccc(F)cc23)c2ccccc2)c1 (stereo unspecified) | µM | = | 13
COc1cc(NC(C(=O)c2c[nH]c3ccccc23)c2ccccc2)cc(OCCN(C)C)c1 (stereo unspecified) | µM | = | 13
COc1cc(NC(C(=O)c2c[nH]c3ccccc23)c2ccc(F)cc2)cc(OC)c1 (stereo unspecified) | µM | = | 13
COc1cccc(NC(C(=O)c2c[nH]c3cc(F)ccc23)c2ccccc2)c1 (stereo unspecified) | µM | = | 15
COc1ccnc(NC(C(=O)c2c[nH]c3ccccc23)c2ccccc2)c1 (stereo unspecified) | µM | = | 95
COc1cccc(NC(C(=O)c2c[nH]c3ccccc23)c2ccco2)c1 (stereo unspecified) | µM | = | 16
COc1cccc(NC(C(=O)c2c[nH]c3cc(OC)ccc23)c2ccccc2)c1 (stereo unspecified) | µM | = | 13
COc1cccc(NC(C(=O)c2c[nH]c3ccccc23)c2ccc(C)cc2)c1 (stereo unspecified) | µM | = | 20
CCOc1cc(NC(C(=O)c2c[nH]c3ccccc23)c2ccccc2)cc(OC)c1 (stereo unspecified) | µM | = | 13
COc1cc(NC(C(=O)c2c[nH]c3c(CCS(C)(=O)=O)cccc23)c2ccccc2)cc(OC)c1 (stereo unspecified) | µM | > | 102
COc1cccc(NC(C(=O)c2c[nH]c3ccccc23)c2ccc(C)nc2)c1 (stereo unspecified) | µM | = | 73
COc1cc(NC(C(=O)c2c[nH]c3ccccc23)c2ccccc2)cc(OCCCO)c1 (stereo unspecified) | µM | = | 50
COc1cc(NC(C(=O)c2c[nH]c3ccc(CO)cc23)c2ccccc2)cc(OC)c1 (stereo unspecified) | µM | = | 65
COc1cc(NC(C(=O)c2c[nH]c3ccc(F)cc23)c2ccccc2)cc(OC)c1 (stereo unspecified) | µM | = | 13
COc1cccc(NC(C(=O)c2c[nH]c3ccccc23)c2ccc(S(C)(=O)=O)cc2)c1 (stereo unspecified) | µM | > | 115
COc1cccc(NC(C(=O)c2c[nH]c3ccccc23)c2cc3ccccn3n2)c1 (stereo unspecified) | µM | = | 26
COc1cncc(NC(C(=O)c2c[nH]c3ccccc23)c2ccccc2)n1 (stereo unspecified) | µM | = | 68
COc1cccc(NC(C(=O)c2c[nH]c3ccccc23)c2cccc(C)c2)c1 (stereo unspecified) | µM | = | 20
COc1cccc(NC(C(=O)c2c[nH]c3ccccc23)c2nc3ccccc3o2)c1 (stereo unspecified) | µM | = | 13
COc1cccc(NC(C(=O)c2c[nH]c3cccc(F)c23)c2ccccc2)c1 (stereo unspecified) | µM | = | 21
COc1cccc(NC(C(=O)c2c[nH]c3ccccc23)c2ccsc2)c1 (stereo unspecified) | µM | = | 15
COc1ccc(NC(C(=O)c2c[nH]c3ccccc23)c2ccccc2)cc1OC (stereo unspecified) | µM | = | 29
COc1cc(NC(C(=O)c2c[nH]c3ccc(CCCO)cc23)c2ccccc2)cc(OC)c1 (stereo unspecified) | µM | = | 56
COc1cc(NC(C(=O)c2c[nH]c3ccccc23)c2ccc(F)cc2)cc(OCCO)c1 (stereo unspecified) | µM | = | 46
COc1cccc(NC(C(=O)c2c[nH]c3ccccc23)c2ccc(F)cc2)c1 (stereo unspecified) | µM | = | 14
COc1cccc(NC(C(=O)c2c[nH]c3cc(Cl)ccc23)c2ccccc2)c1 (stereo unspecified) | µM | = | 13
COc1cccc(NC(C(=O)c2c[nH]c3ccccc23)c2ccccc2)c1 (stereo unspecified) | µM | = | 18
COc1cccc(NC(C(=O)c2c[nH]c3ccccc23)c2cccnc2)c1 (stereo unspecified) | µM | = | 71
COc1cc(NC(C(=O)c2c[nH]c3ccc(CCO)cc23)c2ccccc2)cc(OC)c1 (stereo unspecified) | µM | = | 56
COc1cccc(NC(C(=O)c2c[nH]c3c(F)cccc23)c2ccccc2)c1 (stereo unspecified) | µM | = | 14
COc1cc(CO)cc(NC(C(=O)c2c[nH]c3ccccc23)c2ccccc2)c1 (stereo unspecified) | µM | = | 71
O=C(c1c[nH]c2ccccc12)C(Nc1cccc(F)c1)c1ccccc1 (stereo unspecified) | µM | = | 12
COc1cccc(NC(C(=O)c2c[nH]c3ccccc23)c2ccccc2)n1 (stereo unspecified) | µM | = | 16
O=C(c1c[nH]c2ccccc12)C(Nc1cc(F)cc(F)c1)c1ccccc1 (stereo unspecified) | µM | = | 23
COc1ccc(OC)c(NC(C(=O)c2c[nH]c3ccccc23)c2ccccc2)c1 (stereo unspecified) | µM | = | 15
O=C(c1c[nH]c2ccccc12)C(Nc1cccc(OC(F)(F)F)c1)c1ccccc1 (stereo unspecified) | µM | = | 5

====

- ASSAY_OVERVIEW: Drug metabolism in rat liver microsomes after 15 mins
- Type: ADME, microsome
- CONDITION: liver microsomes, read-out: Drug metabolism

COMPOUND | metabolised at 0.25 h, %
COc1cc(NC(C(=O)c2c[nH]c3ccccc23)c2ccccc2)cc(OCCCO)c1 (stereo unspecified) | 67
COc1cc(CO)cc(NC(C(=O)c2c[nH]c3ccccc23)c2ccccc2)c1 (stereo unspecified) | 85
COc1cccc(NC(C(=O)c2c[nH]c3ccccc23)c2nc3ccccc3o2)c1 (stereo unspecified) | 99
COc1cncc(NC(C(=O)c2c[nH]c3ccccc23)c2ccccc2)c1 (stereo unspecified) | 86
COc1cc(NC(C(=O)c2c[nH]c3ccccc23)c2ccccc2)cc(OCCO)c1 (single isomer, unassigned; (+)) | 21
COc1cc(NC(C(=O)c2c[nH]c3ccccc23)c2ccc(F)cc2)cc(OCCO)c1 (stereo unspecified) | 23

====

- ASSAY_OVERVIEW: Solubility of the compound in DMSO solution at pH 7.4
- Format: physicochemical
- CONDITION: read-out: solubility

MOLECULE | solubility (µM)
COc1cc(NC(C(=O)c2c[nH]c3ccc(CCCO)cc23)c2ccccc2)cc(OC)c1 (stereo not drawn) | 23
COc1cc(NC(C(=O)c2c[nH]c3ccccc23)c2ccc(F)cc2)cc(OCCO)c1 (stereo not drawn) | 27
COc1cc(NC(C(=O)c2c[nH]c3ccccc23)c2ccccc2)cc(OCCO)c1 (single isomer, unassigned; (+)) | 48

====

- ASSAY_OVERVIEW: Drug metabolism in rat liver microsomes after 15 mins
- Format: ADME, microsome
- CONDITION: microsomes, 0.25 h
PROPERTY_MEASURED: Drug metabolism (%)

COMPOUND | OBSERVED_RESULT
COc1cc(NC(C(=O)c2c[nH]c3ccccc23)c2ccccc2)cc(OC)c1 (stereo in doubt; 12b) | 91
COc1cc(NC(C(=O)c2c[nH]c3ccccc23)c2ccccc2)cc(OC)c1 (racemic) | 63
COc1cc(NC(C(=O)c2c[nH]c3ccccc23)c2ccccc2)cc(OCCO)c1 (racemic) | 37
COc1cc(NC(C(=O)c2c[nH]c3ccccc23)c2ccccc2)cc(OC)c1 (single isomer, unassigned; (+)) | 37

====

- Test system: Vero
- ASSAY_OVERVIEW: Cytotoxicity against African green monkey Vero cells assessed as cell growth inhibition after 4 days by MTS/PMS method
- Format: cell-based
- CONDITION: chlorocebus sabaeus, vero, 96 h

COMPOUND | CC50
COc1cc(NC(C(=O)c2c[nH]c3ccccc23)c2ccccc2)cc(OCCO)c1 (single isomer, unassigned; (-)) | 77 µM
COc1cc(NC(C(=O)c2c[nH]c3ccccc23)c2ccccc2)cc(OCCO)c1 (single isomer, unassigned; (+)) | 105 µM
COc1cc(NC(C(=O)c2c[nH]c3ccccc23)c2ccccc2)cc(OC)c1 (stereo in doubt; 12b) | 11 µM
COc1cc(NC(C(=O)c2c[nH]c3ccccc23)c2ccccc2)cc(OCCO)c1 (racemic) | 47 µM
COc1cc(NC(C(=O)c2c[nH]c3ccccc23)c2ccccc2)cc(OC)c1 (racemic) | 16 µM

====

- ASSAY_OVERVIEW: Protein binding in rat plasma
- Format: ADME, cell-free
- CONDITION: read-out: PPB (converted)
Collected fraction unbound values appear next to each entry.
PROPERTY_MEASURED: fraction unbound

MOLECULE | CENSORING_SIGN | OBSERVED_RESULT
COc1cccc(NC(C(=O)c2c[nH]c3ccccc23)c2nc3ccccc3o2)c1 (centres undefined) | < | 0.004
COc1cc(NC(C(=O)c2c[nH]c3ccccc23)c2ccccc2)cc(OCCO)c1 (single isomer, unassigned; (+)) | = | 0.008
COc1cc(NC(C(=O)c2c[nH]c3ccccc23)c2ccccc2)cc(OC)c1 (single isomer, unassigned; (+)) | = | 0.002
COc1cncc(NC(C(=O)c2c[nH]c3ccccc23)c2ccccc2)c1 (centres undefined) | = | 0.008
